Test system: influenza A/New York/469/2004-like flu (H3N2) virus
testName: in vitro
experimentalSetup: dog
assayMetric: selectivity ratio at 24 h

molecule="O=c1cc(-c2ccccc2)oc2cc(O)c(O)c(O)c12 [Baicalein, reference compound]" assaymetric="selectivity ratio at 24 h" endpointvalue="> 3.3"
molecule=COc1c(O)cc2oc(-c3ccccc3Br)cc(=O)c2c1O assaymetric="selectivity ratio at 24 h" endpointvalue="> 17.3"
molecule=COc1cc2oc(-c3ccccc3Br)cc(=O)c2c(O)c1OC assaymetric="selectivity ratio at 24 h" endpointvalue=1.5
molecule="NC(=O)c1ncn([C@@H]2O[C@H](CO)[C@@H](O)[C@H]2O)n1 [Ribavirin, reference compound]" assaymetric="selectivity ratio at 24 h" endpointvalue="> 11.7"

====

CC50 listing for selected compounds.
testName: in vitro
experimentalSetup: dog, CC50 (μM), Table 4 (H3N2 series); MDCK cells
assayMetric: CC50 (µM)

compound="O=c1cc(-c2ccccc2Br)oc2cc(O)c(O)c(O)c12 [Compound 6a]" rel=> endpointvalue=300
compound="COc1cc2oc(-c3cccc(Br)c3)cc(=O)c2c(O)c1OC [Compound 4b]" rel== endpointvalue=66.5
compound="COc1cc2oc(-c3ccc(Br)cc3)cc(=O)c2c(O)c1OC [Compound 4c]" rel=> endpointvalue=300
compound="COc1cc2oc(-c3cccc(Br)c3)cc(=O)c2c(OC)c1OC [Compound 2l]" rel== endpointvalue=64.1
compound="O=C(O)[C@H]1O[C@@H](Oc2cc3oc(-c4ccccc4)cc(=O)c3c(O)c2O)[C@H](O)[C@@H](O)[C@@H]1O [Baicalin, reference compound]" rel=> endpointvalue=300

====

Tested on: influenza A/New York/469/2004-like flu (H3N2) virus
testName: in vitro
experimentalSetup: dog
assayMetric: selectivity ratio at 24 h

compound="O=C(O)[C@H]1O[C@@H](Oc2cc3oc(-c4ccccc4)cc(=O)c3c(O)c2O)[C@H](O)[C@@H](O)[C@@H]1O [Baicalin, reference compound]" endpointvalue="> 2.9"
compound="COc1cc2oc(-c3cccc(Br)c3)cc(=O)c2c(O)c1OC [Compound 4b]" endpointvalue=0.5
compound="COc1cc2oc(-c3cccc(Br)c3)cc(=O)c2c(OC)c1OC [Compound 2l]" endpointvalue=0.5
compound="O=c1cc(-c2ccccc2Br)oc2cc(O)c(O)c(O)c12 [Compound 6a]" endpointvalue="> 4.2"
compound="COc1c(O)cc2oc(-c3ccc(Br)cc3)cc(=O)c2c1O [Compound 5c]" endpointvalue="> 8.7"
compound="COc1cc2oc(-c3ccccc3Br)cc(=O)c2c(OC)c1OC [Compound 2k]" endpointvalue=2
compound="O=c1cc(-c2ccc(Br)cc2)oc2cc(O)c(O)c(O)c12 [Compound 6c]" endpointvalue="> 8.4"
compound="O=c1cc(-c2cccc(Br)c2)oc2cc(O)c(O)c(O)c12 [Compound 6b]" endpointvalue="> 8.4"
compound="COc1c(O)cc2oc(-c3cccc(Br)c3)cc(=O)c2c1O [Compound 5b]" endpointvalue="> 17.3"

====

melting point listing for selected compounds.
assayMetric: melting point

compound="O=c1cc(-c2ccccc2Br)oc2cc(O)c(O)c(O)c12 [Compound 6a]" endpointvalue="249 to 251 °C"
compound="COc1cc2oc(-c3ccccc3Br)cc(=O)c2c(OC)c1OC [Compound 2k]" endpointvalue="122 to 123 °C"
compound="COc1cc2oc(-c3cccc(Br)c3)cc(=O)c2c(O)c1OC [Compound 4b]" endpointvalue="188 to 189 °C"
compound="COc1cc2oc(-c3ccc(Br)cc3)cc(=O)c2c(O)c1OC [Compound 4c]" endpointvalue="206 to 208 °C"
compound="O=c1cc(-c2cccc(Br)c2)oc2cc(O)c(O)c(O)c12 [Compound 6b]" endpointvalue="255 to 256 °C"
compound="COc1cc2oc(-c3cccc(Br)c3)cc(=O)c2c(OC)c1OC [Compound 2l]" endpointvalue="190 to 191 °C"
compound="COc1c(O)cc2oc(-c3ccc(Br)cc3)cc(=O)c2c1O [Compound 5c]" endpointvalue="275 to 276 °C"
compound="COc1cc2oc(-c3ccc(Br)cc3)cc(=O)c2c(OC)c1OC [Compound 2m]" endpointvalue="165 to 166 °C"
compound="COc1cc2oc(-c3ccccc3Br)cc(=O)c2c(O)c1OC [Compound 4a]" endpointvalue="221 to 222 °C"

====

testName: in vitro
experimentalSetup: dog
assayMetric: CC50

compound="CCOC(=O)C1=C[C@@H](OC(CC)CC)[C@H](NC(C)=O)[C@@H](N)C1 [oseltamivir, reference compound]" assaymetric=CC50 endpointvalue="320 µM"

====

testName: in vitro
experimentalSetup: dog, CC50 (μM), Table 4 (H3N2 series); MDCK cells
assayMetric: CC50

compound="COc1cc2oc(-c3ccccc3Br)cc(=O)c2c(O)c1OC [Compound 4a]" endpointvalue="200 µM"
compound="COc1c(O)cc2oc(-c3ccccc3Br)cc(=O)c2c1O [Compound 5a]" endpointvalue="> 300 µM"
compound="COc1c(O)cc2oc(-c3cccc(Br)c3)cc(=O)c2c1O [Compound 5b]" endpointvalue="> 300 µM"
compound="NC(=O)c1ncn([C@@H]2O[C@H](CO)[C@@H](O)[C@H]2O)n1 [Ribavirin, reference compound]" endpointvalue="> 300 µM"
compound="O=c1cc(-c2ccc(Br)cc2)oc2cc(O)c(O)c(O)c12 [Compound 6c]" endpointvalue="> 300 µM"
compound="COc1cc2oc(-c3ccccc3Br)cc(=O)c2c(OC)c1OC [Compound 2k]" endpointvalue="128 µM"
compound="O=c1cc(-c2ccccc2)oc2cc(O)c(O)c(O)c12 [Baicalein, reference compound]" endpointvalue="> 300 µM"
compound="O=c1cc(-c2cccc(Br)c2)oc2cc(O)c(O)c(O)c12 [Compound 6b]" endpointvalue="> 300 µM"
compound="COc1c(O)cc2oc(-c3ccc(Br)cc3)cc(=O)c2c1O [Compound 5c]" endpointvalue="> 300 µM"
compound="COc1cc2oc(-c3ccc(Br)cc3)cc(=O)c2c(OC)c1OC [Compound 2m]" endpointvalue="> 300 µM"
